valueType: IC50

Query :: GET IC50 where system = Macrophage colony-stimulating factor 1 receptor (Homo sapiens) and item = `COc1cc2ncnc(Nc3cccc(Cl)c3)c2cc1OC`
Result :: 6.02 µM
